# Test system: Plasmodium falciparum
# ASSAY COMMENT: Minimum inhibitory concentration against Plasmodium falciparum
# Assay type: functional
What MIC was measured for each of the following?
Numbers only, in µg/mL.

> print(dat)
                            smiles.notation  value.type  value.reported
1  COc1ccc(-c2cc(-c3ccc(O)cc3)nc(N3CCN(c4ccccc4)CC3)n2)cc1         MIC               2

Below are some molecules; for each one, tell me its MIC.
1. Nc1nc(-c2ccccc2)cc(-c2ccc(O)cc2)n1
2. Oc1ccc(-c2cc(-c3ccccc3)nc(N3CCCC3)n2)cc1
3. Cc1ccc(-c2cc(-c3ccc(O)cc3)nc(N3CCCCC3)n2)cc1
4. COc1ccc(-c2cc(-c3ccc(O)cc3)nc(N3CCN(Cc4ccccc4)CC3)n2)cc1
5. COc1ccc(-c2cc(-c3ccc(O)cc3)nc(N3CCCCC3)n2)cc1OC

1: 10; 2: 2; 3: 2; 4: 1; 5: 1
